Ref: patent US20240374573A1

- testedTarget: α2AAR (Homo sapiens, UniProt P08913)
- Construct: host or cells: HEK293 (membranes)
- assayExplanation: α2AAR binding assay ([3H]-RX 821002 radioligand)
- measurementConditions: [3H]-RX 821002 0.5 nM, HEK293 membranes; read-out: α2A affinity (Ki)
pKi: −log10 of the molar value.
recordedMetric: pKi

Some molecules with known pKi results, for comparison:
> print(dat)
                                   molecule  recordedmetric           val
1  Cc1cccc(C(Cc2ccc(C(N)=O)nc2)c2c[nH]cn2)c1C (stereo not drawn) [compound 238]             pKi  6.60 to 7.30
2  Cc1cccc(C(Cc2ccc3c(c2)CCC(=O)N3)c2c[nH]cn2)c1C (stereo not drawn) [compound 230]             pKi        > 8.00
3  Cc1cccc(C(c2c[nH]cn2)c2cccc(NC(=O)CC#N)c2F)c1C (stereo not drawn) [compound 41]             pKi  6.60 to 7.30
4  Cc1cccc(C(c2cccc(NC(=O)CC3=CCOCC3)c2)c2c[nH]cn2)c1C (stereo not drawn) [compound 120]             pKi        > 8.00
5  Cc1cccc(C(Cc2cccc(NS(=O)(=O)CC3CCOCC3)c2)c2c[nH]cn2)c1C (stereo not drawn) [compound 142]             pKi        > 8.00

Query block: What value of pKi has been recorded for this entry: CNC(=O)Nc1ccc(CC(c2c[nH]cn2)c2cccc(C)c2C)cc1 (stereo not drawn) [compound 237]
Result block: > 8.00

Query block: What value of pKi has been recorded for this entry: CC(=O)Nc1ccc(CC(c2c[nH]cn2)c2cccc(C)c2C)c(F)c1 (stereo not drawn) [compound 247]
Result block: > 8.00

Query block: What value of pKi has been recorded for this entry: Cc1cccc(C(CCOCCOCCNS(C)(=O)=O)c2c[nH]cn2)c1C (stereo not drawn) [compound 93]
Result block: 6.00 to 6.60

====

- testedTarget: α2AAR (α2A-adrenergic receptor) (Homo sapiens, UniProt P08913)
- Construct: expressed in transfected cells; host or cells: HEK293
- Sequence (P08913 1-465): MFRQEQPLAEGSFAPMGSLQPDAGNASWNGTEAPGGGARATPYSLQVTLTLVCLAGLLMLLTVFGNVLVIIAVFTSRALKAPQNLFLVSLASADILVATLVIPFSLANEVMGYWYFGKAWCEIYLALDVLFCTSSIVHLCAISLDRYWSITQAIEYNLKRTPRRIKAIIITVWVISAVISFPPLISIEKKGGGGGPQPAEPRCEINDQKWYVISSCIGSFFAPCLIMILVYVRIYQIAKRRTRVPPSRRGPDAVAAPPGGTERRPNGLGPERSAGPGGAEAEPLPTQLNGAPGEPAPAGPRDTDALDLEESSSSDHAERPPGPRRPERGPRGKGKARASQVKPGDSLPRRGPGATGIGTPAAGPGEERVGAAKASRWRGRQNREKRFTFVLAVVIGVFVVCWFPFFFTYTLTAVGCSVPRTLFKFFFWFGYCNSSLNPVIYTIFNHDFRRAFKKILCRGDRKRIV
- assayExplanation: α2AAR FLIPR assay (agonist activity)
- Type: cell-based
- measurementConditions: FLIPR, α2AAR cell line hosted in HEK293 cells; read-out: α2A agonist activity (EC50)
recordedMetric: EC50

> print(dat)
                                   molecule          val
1  Cc1cccc(C(Cc2ccc(-c3nnn(C)n3)cc2)c2c[nH]cn2)c1C (stereo not shown) [compound 241]  10 to 50 nM
2  Cc1cccc(C(c2c[nH]cn2)c2cccc(C(N)=O)c2F)c1C (single isomer, unassigned) [45-B]  10 to 50 nM
3  CONC(=O)c1cccc(C(c2c[nH]cn2)c2cccc(C)c2C)c1 (single isomer, unassigned) [1-A]    > 1000 nM

Query block: What value of EC50 has been recorded for this entry: CNc1ccc(CC(c2c[nH]cn2)c2cccc(C)c2C)cc1 (stereo not shown) [compound 203]
Result block: 50 to 250 nM
